Tested on: LOX IMVI
Assay: NCI tumour cell line growth inhibition, 48 h
Active and inactive are the calls of the source. No stated cut-off is given here; in the data, active = GI50 up to about 1.1 µM and inactive = higher.
observation.type: GI50

Solved entries (count: 5):
| compound | test.result |
| --- | --- |
| COc1ccc2nc3n(c2c1)C(c1c(F)cccc1F)SC3 (stereo unspecified) | 47.3 µM (inactive) |
| COc1cc(/C=C(/C#N)C(N)=O)ccc1O | > 100 µM (inactive) |
| Cc1oc2c(C)c3oc(=O)cc(C)c3cc2c1CN1C(=O)C2OCCOCCOCCOCCOCCO[C@H]2C1=O (stereo partly specified) | > 100 µM (inactive) |
| Cc1cc(-c2ccc(Cl)cc2)c(C#N)c(=S)n1C1OC(CO)C(O)C(O)C1O (stereo unspecified) | > 100 µM (inactive) |
| CCOC(=O)/C(=C\NCc1ccc2c(c1)OCO2)c1nc2ccccc2[nH]1 | 42.2 µM (inactive) |

Let's switch to this compound now.
query: Fill in the blank: the reported GI50 of O=C(Nc1ccc(N2C(=O)CSC2c2ccccc2O)cc1)c1ccc(N2C(=O)CSC2c2ccccc2O)cc1 (stereo unspecified) is ____.
result: 75.3 µM (inactive)
